molecular target: ACAT derived from human macrophage (Homo sapiens, UniProt P35610); construct: Using, as an enzyme source, microsomal fractions prepared in the manner described below under Preparation of Microsome from U937 cells; endogenous in cells; host or cells: U937 cells differentiated with TPA, microsomal fraction; test: Inhibitory activity against ACAT derived from human macrophage (microsomes of TPA-differentiated U937 cells); type: biochemical; conditions: human macrophage (U937/TPA) microsome, pH 7.4, 37° C., 30 minutes
Sequence (P35610 whole entry): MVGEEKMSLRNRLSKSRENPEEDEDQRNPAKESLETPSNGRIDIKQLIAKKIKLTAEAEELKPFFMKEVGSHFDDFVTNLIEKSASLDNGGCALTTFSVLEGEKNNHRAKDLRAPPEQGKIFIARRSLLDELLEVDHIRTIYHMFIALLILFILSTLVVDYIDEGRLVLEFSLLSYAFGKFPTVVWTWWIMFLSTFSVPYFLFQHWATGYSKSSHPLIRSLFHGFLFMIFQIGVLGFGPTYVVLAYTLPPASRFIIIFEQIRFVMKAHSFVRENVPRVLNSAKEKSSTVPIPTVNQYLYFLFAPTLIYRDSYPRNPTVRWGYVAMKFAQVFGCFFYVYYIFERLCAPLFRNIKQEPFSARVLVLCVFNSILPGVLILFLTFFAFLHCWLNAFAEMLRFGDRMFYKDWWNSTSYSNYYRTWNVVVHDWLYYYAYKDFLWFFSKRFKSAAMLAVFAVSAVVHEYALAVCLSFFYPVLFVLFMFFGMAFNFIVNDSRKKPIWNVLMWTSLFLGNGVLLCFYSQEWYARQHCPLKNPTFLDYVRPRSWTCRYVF
Catalogue of IC50 values
recordedMetric: IC50 (µM)

1) CCCCCC=CCC=CCCCCCCCC(=O)Nc1c(C)cccc1C [reference compound]
0.07
2) CCC=CCC=CCC=CCC=CCC=CCCCC(=O)NCCNC(=O)Nc1c(C(C)C)cccc1C(C)C [Compound 13]
0.67
3) CCC=CCC=CCC=CCC=CCC=CCC=CCCC(=O)Nc1c(C)cc(C)cc1C [Compound 6]
0.15
4) CCC=CCC=CCC=CCC=CCC=CCC=CCCC(=O)Nc1c(C)cccc1C [Compound 8]
0.28
5) CCC=CCC=CCC=CCC=CCC=CCC=CCCC(=O)NCc1ccc(NC(=O)Nc2c(C(C)C)cccc2C(C)C)cc1 [Compound 22]
17.9
6) CCC=CCC=CCC=CCC=CCC=CCCCC(=O)NC1CCCCC1NC(=O)Nc1c(C(C)C)cccc1C(C)C (stereo not shown) [Compound 17]
1.86
7) CCC=CCC=CCC=CCC=CCC=CCC=CCCC(=O)NCCNC(=O)Nc1c(C(C)C)cccc1C(C)C [Compound 14]
4.52
8) CCC=CCC=CCC=CCC=CCC=CCC=CCCC(=O)Nc1c(OC)cc(OC)cc1OC [Compound 2]
0.5
9) CCCCC/C=C\C/C=C\CCCCCCCC(=O)N1CCN(C(=O)Nc2c(C(C)C)cccc2C(C)C)CC1 [reference compound]
4.61
10) CCC=CCC=CCC=CCC=CCC=CCCCC(=O)N1CCN(C(=O)Nc2c(C(C)C)cccc2C(C)C)CC1 [Compound 15]
1.08
